assayProtocol: Noncompartmental plasma pharmacokinetics of AS and DHA after a single 200 mg oral dose of AS (LC-MS)
conditionSummary: female, human, plasma, po, 200 mg, DHA AUCall, 200 mg oral AS; non-pregnant controls; median [range]
Method: The four tablets were given orally with 240 mL water under medical supervision. A catheter was inserted into a forearm vein for pharmacokinetic sample collection and flushed after each blood draw with saline solution. […] The persistence of malaria infection and adverse events were tracked for 28 days after SP administration. Babies born from the pregnant women cohort were followed until one year of age and development assessed. […]
readout: AUC (ng·h/mL)

compound: C[C@H]1[C@@H](O)O[C@@H]2O[C@@]3(C)CC[C@H]4[C@H](C)CC[C@@H]1[C@@]24OO3 [DHA, dihydroartemisinin]
measuredNumber: 2790

Data provenance is paper PMC3056842.
